Cited source for all entries: PubChem BioAssay AID1347416

Assay: qHTS Validation assay for Inhibitors of Plasmodium falciparum Dd2 growth in vitro; further: nearly all actives have a fitted effect of over 70% in size
Details: P. falciparum Dd2 in RBCs, SYBR Green growth, 72 h; series mostly up to 28.7 µM
The whole screen tested about 4,100 compounds, of which about 1,600 (39%) were called active. Another 25% or so got no clear call; they are omitted. The call rests on the fitted dose curve; in most records, active means well fitted inhibition curve with a large enough effect; inconclusive means small, poorly fitted or top-dose-only effect; inactive means no such curve, though single readings can be large or run the other way. The list shows a part of the results.
Classes used: active, inactive

compound: NS(=O)(=O)c1ccc(N/N=C/c2cn(-c3ccccc3)nc2-c2cccs2)cc1
qualitativeLabel: active

compound: O=C(O)c1ccc(N/N=C/c2cn(-c3ccccc3)nc2-c2cccs2)cc1
qualitativeLabel: active

compound: OC(CNCc1cccc(Cl)c1)c1ccccc1 (centres undefined)
qualitativeLabel: active

compound: CN(C(=O)CSc1nc2ccc(NC(=O)CCc3ccccc3)cc2s1)c1ccccc1
qualitativeLabel: active

compound: CCc1nnc(NC(=O)c2cc(Cl)ccn2)s1
qualitativeLabel: inactive

compound: Cc1ccccc1C1C(C#N)=C2N=C(N)c3c(sc4c3CCCCC4)N2C2=C1C(=O)CCC2 (centres undefined)
qualitativeLabel: active

compound: COc1cccc(CC(=O)NCCn2ccn3nc(-c4ccc(C)cc4C)cc3c2=O)c1
qualitativeLabel: inactive

compound: O=C(c1cc(-c2ccccc2)n[nH]1)N1CCCC(Cc2noc(-c3cnccn3)n2)C1 (centres undefined)
qualitativeLabel: inactive

compound: Cc1c(Cl)cccc1Nc1nn2c(=O)c3ccc(C(=O)NCCc4ccccc4)cc3nc2s1
qualitativeLabel: active

compound: CCCCN(CC)CCNC(=O)c1cc2c(-c3ccc(Cl)cc3)nn(C)c2s1
qualitativeLabel: active

compound: O=C(c1ccccc1OCC1CCCN(Cc2ccncc2F)C1)N1CCCCC1 (centres undefined)
qualitativeLabel: active

compound: COc1ccc2cc3cc(C(=O)NCCC(C)C)oc3nc2c1
qualitativeLabel: inactive

compound: O=C(Cn1cc(-c2nnnn2-c2ccc(Cl)cc2)c(=O)c2ccccc21)c1ccccc1
qualitativeLabel: inactive

compound: CCOc1ccccc1C(=O)N1CCN(C2CCN(C)C2=O)CC1 (centres undefined)
qualitativeLabel: inactive

compound: CC1=C(CC(=O)c2ccc(Cl)cc2)C(=O)c2ccccc2C1=O
qualitativeLabel: active

compound: COc1ccc(CNC[C@H]2O[C@H](Cc3cc(-c4ccccc4)on3)CC[C@@H]2O)cc1
qualitativeLabel: active

compound: CCCNC(=O)c1ccc(N2CCC3(CC2)CC(c2cccc(Br)c2)=NO3)c(NC(=O)c2ccco2)c1
qualitativeLabel: active

compound: CC1(CNc2ccccc2)COc2ccc(C(=O)NCCc3ccccc3)cc2N1 (centres undefined)
qualitativeLabel: inactive

compound: O=C1c2c(nc(CNCc3cccc(F)c3)n2Cc2ccccc2)NCCN1Cc1cccc(Cl)c1
qualitativeLabel: inactive

compound: O=C(c1ccccc1OCC1CCCN(Cc2ccncc2F)C1)N1CCCC1 (centres undefined)
qualitativeLabel: active

compound: CN(CCNC(=O)c1cc2c(-c3ccccc3F)nn(C)c2s1)C1CCCCC1
qualitativeLabel: active

compound: CCC(O)c1cc2n(n1)CCN(C(=O)CN1CCOc3ccccc3C1)C2 (centres undefined)
qualitativeLabel: inactive

compound: O=C1C2=C(Nc3ccccc3SC2c2ccco2)c2ccccc21 (centres undefined)
qualitativeLabel: active

compound: COc1cc(Cc2cnc(N)nc2N)cc(OC)c1OC
qualitativeLabel: inactive

compound: O=C(Nc1ccc(C(=O)OC[C@@H]2CCCN3CCCC[C@H]23)cc1)c1cccc(Br)c1
qualitativeLabel: active

compound: CCOC(=O)CCCOc1cccn2c(=O)c(-c3cc(C)n(-c4ccc(Cl)cc4)n3)c(C)nc12
qualitativeLabel: active

compound: CN1CCN(C(=O)c2ccc3c(c2)N(Cc2ccc(C(F)(F)F)cc2)C(=O)c2ccccc2S3)CC1
qualitativeLabel: active

compound: O=C(Nc1nnc(SCc2ccc(F)cc2)s1)c1ccccn1
qualitativeLabel: active

compound: COc1ccc(C2=[N+](C)CCn3cccc32)c(OC)c1
qualitativeLabel: active

compound: CC1(C)[C@H]2CC[C@@H](CNC(=O)c3cccc4[nH]ccc34)[C@@H]1C2
qualitativeLabel: inactive

compound: CCOc1cc(NC(=S)NC)c(OCC)cc1NC(=O)c1ccco1
qualitativeLabel: inactive

compound: Cc1ccc(N(C)C2=NC(=O)CS2)cc1Cl
qualitativeLabel: active

compound: CCOc1ccc(CN2C(=O)c3ccccc3Sc3ccc(C(=O)N4CCN(C)CC4)cc32)cc1
qualitativeLabel: active

compound: O=C1C2=C(Nc3ccccc3SC2c2c(F)cccc2Cl)c2ccccc21 (centres undefined)
qualitativeLabel: active

----------
Experiment: qHTS Validation assay for Inhibitors of Plasmodium falciparum Dd2 growth in vitro; further: nearly all actives have a fitted effect of over 70% in size; further: potency means the concentration at half of the fitted maximal effect
Details: P. falciparum Dd2 in RBCs, SYBR Green growth, 72 h; series mostly up to 28.7 µM
The campaign covered roughly 4,100 compounds. About 1,600 (39%) were called active. Inconclusive results (about 25%) are left out. This is one part of the list.
observedProperty: Potency

molecule: CN1CCN(c2cc(=O)c3ccnc(-c4cn[nH]c4)c3o2)CC1
observedProperty: Potency
endpointResult: inactive
//
molecule: NNC(=O)CN1C(c2cccc(Cl)c2)=Nc2ccc(Br)cc2C1c1ccccc1 (configuration not stated)
observedProperty: Potency
endpointResult: 2660 nM (active)
//
molecule: Cc1ncc(CO)c(/C=N/NC(=O)c2ccc(O)cc2)c1O
observedProperty: Potency
endpointResult: inactive
//
molecule: COc1ccc(OC)c(C2CCN(c3ncncn3)C2)c1 (configuration not stated)
observedProperty: Potency
endpointResult: inactive
//
molecule: Cc1cc(Oc2c(C(F)(F)F)oc3c(CN4CCC(C)CC4)c(O)ccc3c2=O)cc(C)c1Cl
observedProperty: Potency
endpointResult: 750 nM (active)
//
molecule: COc1ccc(NC(=O)CSc2nc(-c3ccc(OC)cc3)[nH]c2-c2ccc(F)cc2)cc1
observedProperty: Potency
endpointResult: inactive
//
molecule: CCN(CC)S(=O)(=O)c1ccc(NC(=O)CCc2c(C)nc3cc(-c4ccc(Cl)cc4)nn3c2C)cc1
observedProperty: Potency
endpointResult: 4730 nM (active)
//
molecule: COc1ccc([S+](=O)([O-])N2CCC(N3Cc4cccn4C3=O)CC2)cc1
observedProperty: Potency
endpointResult: inactive
//
molecule: O=C(NCCc1c[nH]c2ccccc12)c1c(OCC2CC2)cc(=O)n2c1CCOCC2
observedProperty: Potency
endpointResult: inactive
//
molecule: CC1CCCN(Cc2c(O)ccc3c4c(c(=O)oc23)CCCC4)C1 (configuration not stated)
observedProperty: Potency
endpointResult: 6680 nM (active)
//
molecule: CCOc1ccc(-c2cc3c(=O)n(CCNC(=O)c4ccc(OC)c(F)c4)ccn3n2)cc1
observedProperty: Potency
endpointResult: inactive
//
molecule: COCCN1C(=O)c2ccccc2C(C(=O)Nc2nc3ccccc3[nH]2)C12CCCCC2 (configuration not stated)
observedProperty: Potency
endpointResult: 4730 nM (active)
//
molecule: CCOc1ccc(CCNC(=O)c2ccc3c(c2)N(Cc2ccccc2F)C(=O)c2ccccc2S3=O)cc1OCC (configuration not stated)
observedProperty: Potency
endpointResult: 10600 nM (active)
//
molecule: CCn1cc(CN2CCN(C(=O)c3ccsc3)CC2)ccc1=O
observedProperty: Potency
endpointResult: inactive
//
molecule: COCCN1C(=O)c2ccccc2C(C(=O)Nc2nc3ccccc3[nH]2)C12CCCC2 (configuration not stated)
observedProperty: Potency
endpointResult: 4220 nM (active)
//
molecule: Cc1nc2sc(C(=O)Nc3ccc(F)cc3)c(N)c2c(-c2ccc(Br)cc2)c1C(=O)Nc1ccc(Cl)cc1
observedProperty: Potency
endpointResult: 8410 nM (active)
//
molecule: COc1ccc(C2=CC(c3ccc(F)cc3)n3ncc(C(=O)Nc4ccc(C)cc4)c3N2)cc1 (configuration not stated)
observedProperty: Potency
endpointResult: 2370 nM (active)
//
molecule: COc1ccc(-c2c3c(nc4sc(C(=O)Nc5ccc(F)cc5)c(N)c24)CC(C)(C)CC3=O)cc1
observedProperty: Potency
endpointResult: 944 nM (active)
//
molecule: CCc1ccc(N=C2NC(=O)CC(C(=O)Nc3ccc(OC)cc3)S2)cc1 (configuration not stated)
observedProperty: Potency
endpointResult: inactive
//
molecule: COCCN1C(=O)CCC2(CNC(=O)CCc3nc4ccccc4[nH]3)CCCC=C12 (configuration not stated)
observedProperty: Potency
endpointResult: inactive
//
molecule: CCc1cc(=O)oc2cc(C)cc(OCC(=O)C(C)(C)C)c12
observedProperty: Potency
endpointResult: 11900 nM (active)
//
molecule: N=c1ccn(CC(=O)c2ccc(-c3ccccc3)cc2)cc1
observedProperty: Potency
endpointResult: 944 nM (active)
//
molecule: COc1ccc(C(=O)Nc2ccc([C@H]3OCC(=O)N(C(C)C)[C@@H]3CO)cc2)cc1
observedProperty: Potency
endpointResult: inactive
//
molecule: CC1CCCN(Cc2c(O)ccc3c(=O)c(Oc4ccc(C(C)(C)C)cc4)c(C(F)(F)F)oc23)C1 (configuration not stated)
observedProperty: Potency
endpointResult: 299 nM (active)
//
molecule: COC[C@@H]1CN(Cc2ccc(OC)c(C)c2)C[C@H]1C(=O)N(C)C
observedProperty: Potency
endpointResult: inactive
//
molecule: CCc1nc(NC(=O)C2c3ccccc3C(=O)N(CCOC)C23CCCC3)sc1C (configuration not stated)
observedProperty: Potency
endpointResult: 5960 nM (active)
//
molecule: O=C1Nc2ccc(-c3ccc(Cl)cc3)cc2C(=O)N2CCN(C(=O)c3ccccc3)C[C@H]12
observedProperty: Potency
endpointResult: inactive
//
molecule: CCc1ccc(CNC(=O)C2CCN(c3cc(C(F)(F)F)nc(C)n3)CC2)cc1
observedProperty: Potency
endpointResult: inactive
//
molecule: Cc1ccc(CNC(=O)CCc2c(C)nc3nc(C)nn3c2C)cc1
observedProperty: Potency
endpointResult: inactive
//
molecule: COCCN1C(=O)CC[C@]2(C(=O)NCc3ccccc3Cl)CCCC[C@@H]12
observedProperty: Potency
endpointResult: inactive
//
molecule: CC(C)OCCCNc1sc(S(=O)(=O)c2ccccc2)nc1S(=O)(=O)c1ccc(Cl)cc1
observedProperty: Potency
endpointResult: 266 nM (active)
//
molecule: Cc1cc(OC(C)C(=O)NCCc2c[nH]c3ccccc23)c2c(C)cc(=O)oc2c1 (configuration not stated)
observedProperty: Potency
endpointResult: 2660 nM (active)
//
molecule: CCc1cc(=O)oc2cc(C)cc(OCC(=O)NCC(O)c3ccccc3)c12 (configuration not stated)
observedProperty: Potency
endpointResult: 6680 nM (active)
//
molecule: COc1ccc(-c2cc3ccc(O)c(CN4CCCC(C)C4)c3oc2=O)cc1 (configuration not stated)
observedProperty: Potency
endpointResult: 2370 nM (active)
//
molecule: CCc1ccc(Oc2c(C(F)(F)F)oc3c(CN4CCCC(C)C4)c(O)ccc3c2=O)cc1 (configuration not stated)
observedProperty: Potency
endpointResult: 1330 nM (active)
//
molecule: COc1ccc(OC)c(CNC(=O)C2CCN(c3ncnc4c3nc3n4CCCCC3)CC2)c1
observedProperty: Potency
endpointResult: inactive
//
molecule: CCCc1noc(-c2ccn3c(CNC(=O)C(C)Oc4ccccc4)nnc3c2)n1 (configuration not stated)
observedProperty: Potency
endpointResult: inactive
